Assay Name: Activity at beta-lactamase TEM-2 by spectrophotometry
Property Name: kcat

O=C(CC(=O)Oc1cccc(C(=O)O)c1)NCc1ccccc1
28 s⁻¹
O=C(O)c1cccc(OC(=O)C(Cc2ccccc2)C(=O)NCc2ccccc2)c1 (stereo not given)
> 9.4 ×10⁻⁴ /s
C[C@H](C(=O)NCc1ccccc1)C(=O)Oc1cccc(C(=O)O)c1
> 7.2 ×10⁻⁴ /s
O=C(O)c1cccc(OC(=O)C2CCN(Cc3ccccc3)C2=O)c1 (stereo not given)
> 1.1 ×10⁻⁴ /s

Consider the additional molecule presented here.
Noted for O=C(CC(=O)N(Cc1ccccc1)Cc1ccccc1)Oc1cccc(C(=O)O)c1 : its kcat reads 0.21 s⁻¹

* * *

Assay Name: Ratio of Kcat to Km for beta-lactamase TEM-2
Property Name: kcat/Km

A selection of reference data follows.
O=C(CC(=O)Oc1cccc(C(=O)O)c1)NCc1ccccc1
1.95 ×10⁴ /s/M
O=C(O)c1cccc(OC(=O)C2Cc3ccccc3N(Cc3ccccc3)C2=O)c1 (stereo not drawn)
< 0.9 s⁻¹ M⁻¹
O=C(O)c1cccc(OC(=O)C(Cc2ccccc2)C(=O)NCc2ccccc2)c1 (stereo not drawn)
4.7 s⁻¹ M⁻¹
CO[C@@H](C(=O)NCc1ccccc1)C(=O)Oc1cccc(C(=O)O)c1
< 6 s⁻¹ M⁻¹
O=C(CC(=O)N(Cc1ccccc1)Cc1ccccc1)Oc1cccc(C(=O)O)c1
1.2 ×10² /s/M
C[C@H](C(=O)NCc1ccccc1)C(=O)Oc1cccc(C(=O)O)c1
3.6 s⁻¹ M⁻¹

Dear reader, for each entry below, please note its kcat/Km.
1. O=C(O)c1cccc(OC(=O)C2CCN(Cc3ccccc3)C2=O)c1 (stereo not drawn)
2. CN(Cc1ccccc1)C(=O)CC(=O)Oc1cccc(C(=O)O)c1

["0.54 s⁻¹ M⁻¹", "< 0.2 s⁻¹ M⁻¹"]

* * *

Assay Name: Activity at beta-lactamase TEM-2 by spectrophotometry
Property Name: Km

// worked examples, Km included
C[C@H](C(=O)NCc1ccccc1)C(=O)Oc1cccc(C(=O)O)c1
> 200 µM
O=C(CC(=O)N(Cc1ccccc1)Cc1ccccc1)Oc1cccc(C(=O)O)c1
1800 µM
O=C(CC(=O)Oc1cccc(C(=O)O)c1)NCc1ccccc1
1.42 µM

Respectfully, I request Km for each entry included below.
1. O=C(O)c1cccc(OC(=O)C2CCN(Cc3ccccc3)C2=O)c1 (stereo not given)
2. O=C(O)c1cccc(OC(=O)C(Cc2ccccc2)C(=O)NCc2ccccc2)c1 (stereo not given)

> 220 µM
> 200 µM
